Below, each of the compounds is paired with its reported Percent reversal of α-Syn mediated disruption of cell integrity value.
Target: α-synuclein (Homo sapiens)
Construct: expressed in transfected cells
Assay: calcein assay of membrane integrity (reversal of α-synuclein-mediated disruption of cell membranes, FLIPR)
Format: cell-based
Settings: 0.01 μM test compound; neuronal cells infected with LV-α-synuclein, 24 h treatment in serum free media, calcein retention
parameter.measured: Percent reversal of α-Syn mediated disruption of cell integrity

# compound, reported.value
rows = [
    ("CCc1csc(C(Cc2c[nH]c3ccccc23)NC(=O)c2cnc(N3CCN(C)CC3)s2)n1 (stereo not drawn)", "137%"),
    ("CCCc1nnc(C(Cc2c[nH]c3ccccc23)NC(=O)c2cnc(N3CCN(C)CC3)s2)s1 (stereo not drawn)", "187%"),
    ("CCCCNNC(=O)C(Cc1c[nH]c2ccccc12)NC(=O)c1cnc(N2CCN(C)CC2)s1 (stereo not drawn)", "135%"),
    ("CCCCn1nnc(C(Cc2c[nH]c3ccccc23)NC(=O)c2cnc(N3CCN(C)CC3)s2)n1 (stereo not drawn)", "110%"),
    ("CCCc1nnc(C(Cc2c[nH]c3ccccc23)NC(=O)c2cnc(N3CCN(C)CC3)s2)[nH]1 (stereo not drawn)", "115%"),
    ("CCCCNC(=N)C(Cc1c[nH]c2ccccc12)NC(=O)c1cnc(N2CCN(C)CC2)s1 (stereo not drawn)", "189%"),
]
